system_name: HNF4alpha8 (COS-7 nuclear extract) (Homo sapiens, UniProt P41235-5 1-452)
Sequence: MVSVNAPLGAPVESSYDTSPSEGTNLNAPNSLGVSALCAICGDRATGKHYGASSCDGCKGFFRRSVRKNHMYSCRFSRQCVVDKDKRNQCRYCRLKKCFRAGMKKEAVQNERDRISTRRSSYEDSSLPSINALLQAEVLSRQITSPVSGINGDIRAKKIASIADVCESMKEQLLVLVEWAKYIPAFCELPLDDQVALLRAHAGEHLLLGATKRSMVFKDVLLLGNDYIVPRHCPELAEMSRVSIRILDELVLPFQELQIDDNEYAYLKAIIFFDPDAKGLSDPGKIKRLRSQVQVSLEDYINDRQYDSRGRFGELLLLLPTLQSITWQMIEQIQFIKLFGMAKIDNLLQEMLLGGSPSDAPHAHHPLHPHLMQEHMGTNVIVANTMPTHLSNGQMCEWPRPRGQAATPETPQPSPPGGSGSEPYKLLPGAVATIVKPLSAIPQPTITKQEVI
assay: protein-binding microarray; COS-7 nuclear extract on double-stranded Agilent 4x180k PBM; binding buffer, salt, pH and temperature not given in the material; high values mean tight binding
condition_notes: chain copies: 2; label: 3' end of strand 1 on the slide; dsDNA, one strand shown
The full ranking holds about 18,000 sequences; the median of “log2 normalized intensity” is about 0.36, and the highest 2% start at about 7.3. What follows is part of a selection rich in the highest values, with near analogues and random picks from the rest.

{"sequence": "TTCTCTCTTGGACTCTTGGACTCCCTGAAGGCCTAGGGAGATTAGAGTATCGGTCGA", "binding signal": "5.73 log2 normalized intensity"}
{"sequence": "GGGGCCCCATCGACCTTTGCTCCCGACTCTGCCTAGGGAGATTAGAGTATCGGTCGA", "binding signal": "8.88 log2 normalized intensity"}
{"sequence": "TGCCCTTTGGCCCCCAGAGCCCCGTGTCTCGCCTAGGGAGATTAGAGTATCGGTCGA", "binding signal": "5.63 log2 normalized intensity"}
{"sequence": "CACCTCTGCTTATCTCAACTGATTTACCTCGCCTAGGGAGATTAGAGTATCGGTCGA", "binding signal": "0.918 log2 normalized intensity"}
{"sequence": "ATCTCTAAGCTACTGAAAATGACCTTTGTTGCCTAGGGAGATTAGAGTATCGGTCGA", "binding signal": "6.73 log2 normalized intensity"}
{"sequence": "AACATGTAAATATGACCTTTGCTTTTCAAGGCCTAGGGAGATTAGAGTATCGGTCGA", "binding signal": "5.13 log2 normalized intensity"}
{"sequence": "CTCCTGGACTTTGGTCTCATGGGCCTAAACGCCTAGGGAGATTAGAGTATCGGTCGA", "binding signal": "5.27 log2 normalized intensity"}
{"sequence": "GTGTGTGGCCTGCACAGTTGCACAATGTCAGCCTAGGGAGATTAGAGTATCGGTCGA", "binding signal": "0.815 log2 normalized intensity"}
{"sequence": "AAAAAAAAAAATTACTGACCCTTGCACTGTGCCTAGGGAGATTAGAGTATCGGTCGA", "binding signal": "5.45 log2 normalized intensity"}
{"sequence": "GGACTTGGTAAAGTCAATAATCTAGAAACCGCCTAGGGAGATTAGAGTATCGGTCGA", "binding signal": "0.338 log2 normalized intensity"}
{"sequence": "TTTTCCTTTGTTGGTTTTGCCCGAGGTCTGGCCTAGGGAGATTAGAGTATCGGTCGA", "binding signal": "1.89 log2 normalized intensity"}
{"sequence": "GACCTCTGGACCTCATCTTCCTCCCCAATAGCCTAGGGAGATTAGAGTATCGGTCGA", "binding signal": "4.6 log2 normalized intensity"}
{"sequence": "TAAGTGTGGGTTTAAGTAAGCCCCCTTCCCGCCTAGGGAGATTAGAGTATCGGTCGA", "binding signal": "4.85 log2 normalized intensity"}
{"sequence": "GTAGGGCAGAGGCCAGTTTGATCACAAGACGCCTAGGGAGATTAGAGTATCGGTCGA", "binding signal": "-0.285 log2 normalized intensity"}
{"sequence": "GTTATCACAGGCTTGGAATGTTTCTGTATCGCCTAGGGAGATTAGAGTATCGGTCGA", "binding signal": "0.74 log2 normalized intensity"}
{"sequence": "GAAACCCTAAACCTGCAAACCTTTGACCTTGCCTAGGGAGATTAGAGTATCGGTCGA", "binding signal": "5.96 log2 normalized intensity"}
{"sequence": "TTTGGGGGTTGGTATTACAAAGCAATCTACGCCTAGGGAGATTAGAGTATCGGTCGA", "binding signal": "0.18 log2 normalized intensity"}
{"sequence": "GTCCCTGGCCCCGGGGCGGGGGCGGGCTGGGCCTAGGGAGATTAGAGTATCGGTCGA", "binding signal": "-0.21 log2 normalized intensity"}
{"sequence": "GCTCTAGACATCGACCTTTGTGGGCTTCAGGCCTAGGGAGATTAGAGTATCGGTCGA", "binding signal": "3.19 log2 normalized intensity"}
{"sequence": "AGGCTGGGGCCCCATCGACCTTTGCTCCCGGCCTAGGGAGATTAGAGTATCGGTCGA", "binding signal": "10.5 log2 normalized intensity"}
{"sequence": "TACATTGAACTTTGAACACCTCTTCTTTCTGCCTAGGGAGATTAGAGTATCGGTCGA", "binding signal": "5.51 log2 normalized intensity"}
{"sequence": "GAATAATCCCCTCCTGGACTTTGGTCTCATGCCTAGGGAGATTAGAGTATCGGTCGA", "binding signal": "8 log2 normalized intensity"}
{"sequence": "CATCTGAACTCTTCATGGACTCCTCTTATCGCCTAGGGAGATTAGAGTATCGGTCGA", "binding signal": "2.06 log2 normalized intensity"}
{"sequence": "TATGTGCTCACTCCTGGGACAAGGACTTTGGCCTAGGGAGATTAGAGTATCGGTCGA", "binding signal": "3.11 log2 normalized intensity"}
{"sequence": "GAACATGGACTTTGAACCTCTCTTCTTTTTGCCTAGGGAGATTAGAGTATCGGTCGA", "binding signal": "7.93 log2 normalized intensity"}
{"sequence": "CGACCTTTGCTCCCGACTCTGAGGCTCCATGCCTAGGGAGATTAGAGTATCGGTCGA", "binding signal": "5.96 log2 normalized intensity"}

Reference source for all entries: paper PMC10726135
